Read-out: Decorin, DCN (gene 1634)
Protocol Text: BSK_MyoF_Decorin: BioMAP Diversity Plus: MyoF Assay for Decorin Biomarker Activity (AID 2284265)
Condition Set: primary human lung fibroblasts
The source made the active and inactive calls. Rule for the calls: active = hit-call score of the fitted dose curve at least 0.9, where 1 is the maximum; inactive = score below 0.9.
Lab note: assign the record to one of active, inactive

Previously resolved entries follow.
>  <Compound>
CC(C)N(C(=O)CCl)c1ccccc1

>  <Qualitative Label>
active

$$$$
>  <Compound>
Oc1c(Br)cc(Br)cc1Br

>  <Qualitative Label>
inactive

$$$$
>  <Compound>
OC(Cc1ccccc1Cl)(Cn1cncn1)C1(Cl)CC1 (stereo not drawn)

>  <Qualitative Label>
inactive

$$$$
>  <Compound>
O=C(CCl)NCO

>  <Qualitative Label>
inactive

$$$$

INPUT: Which outcome was assigned to Oc1cccc(-c2ccccc2)c1 in this test?
OUTPUT: inactive

INPUT: What is the recorded call for this compound in the test? O=[N+]([O-])c1cccc2ccccc12
OUTPUT: inactive

INPUT: Would you mind telling me which call this test gave CCOP(=S)(OCC)SCS(=O)(=O)C(C)(C)C ?
OUTPUT: inactive

INPUT: Per the records of this test, what outcome belongs to Cc1cc(Cl)ccc1OC(C)C(=O)O (stereo not drawn) ?
OUTPUT: inactive

INPUT: Record request — test call for CCOP(=S)(OCC)OP(=S)(OCC)OCC
OUTPUT: inactive

###

Read-out: Macrophage colony-stimulating factor (MCSF), CSF1 (gene 1435)
Protocol Text: BSK_LPS_MCSF: BioMAP Diversity Plus: LPS Assay for Macrophage colony-stimulating factor (MCSF) Biomarker Activity (AID 2283083)
Condition Set: primary human HUVEC with PBMC; actives raise or lower the signal
Active and inactive are the calls of the source. Rule for the calls: active = hit-call score of the fitted dose curve at least 0.9, where 1 is the maximum; inactive = score below 0.9.
Log the outcome using a class from active, inactive

Look over these answered cases.
>  <Compound>
Nc1ccc(N)cc1

>  <Qualitative Label>
inactive

$$$$
>  <Compound>
O=C(CCl)NCO

>  <Qualitative Label>
inactive

$$$$
>  <Compound>
CCOP(=S)(OCC)SCS(=O)(=O)C(C)(C)C

>  <Qualitative Label>
inactive

$$$$
>  <Compound>
CC(C)=CC1C(C(=O)OCc2cccc(Oc3ccccc3)c2)C1(C)C (stereo unspecified)

>  <Qualitative Label>
inactive

$$$$
>  <Compound>
Cc1ccccc1OP(=O)(Oc1ccccc1C)Oc1ccccc1C

>  <Qualitative Label>
active

$$$$

INPUT: Can you look up the reported call for Nc1c(Oc2ccccc2)cc(O)c2c1C(=O)c1ccccc1C2=O for me?
OUTPUT: inactive

INPUT: How did this test come out for C=CC(Cl)CCl (stereo unspecified) ?
OUTPUT: inactive

INPUT: Record lookup: outcome of this test for C#CCOC(=O)/C=C(C)/C=C/CC(C)CCCC(C)C (stereo unspecified) ?
OUTPUT: inactive

INPUT: Status in this test for COCC(=O)N(c1c(C)cccc1C)[C@H](C)C(=O)OC ?
OUTPUT: inactive

INPUT: Could you please tell me the result logged for CCOP(=O)(OCC)OC(=CCl)c1ccc(Cl)cc1Cl in this assay?
OUTPUT: active

###

Read-out: Interleukin-1 alpha (IL1a), IL1A (gene 3552)
Protocol Text: BSK_BE3C_IL1a: BioMAP Diversity Plus: BE3C Assay for Interleukin-1 alpha (IL1a) Biomarker Activity (AID 2283016)
Condition Set: primary human bronchial epithelial cells; actives raise or lower the signal
Active and inactive are the calls of the source. How the source made its calls: active means hit-call score of the fitted dose curve at least 0.9, where 1 is the maximum; inactive means score below 0.9.
# output must be one of 1 for active, -1 for inactive

Solved entries (count: 8):
>  <Compound>
CCOP(=S)(OCC)SCS(=O)(=O)C(C)(C)C

>  <Qualitative Label>
-1

$$$$
>  <Compound>
CCCCCCCCCCCCN(C)C

>  <Qualitative Label>
-1

$$$$
>  <Compound>
Cc1cc(Cl)ccc1N

>  <Qualitative Label>
-1

$$$$
>  <Compound>
CC(C=O)Cc1ccc2c(c1)OCO2 (stereo not drawn)

>  <Qualitative Label>
-1

$$$$
>  <Compound>
c1ccc(-c2cccc(-c3ccccc3)c2)cc1

>  <Qualitative Label>
1

$$$$
>  <Compound>
Oc1ccc(Cc2ccc(O)cc2)cc1

>  <Qualitative Label>
-1

$$$$
>  <Compound>
CC(C)(C)c1ccccc1O

>  <Qualitative Label>
-1

$$$$
>  <Compound>
Cc1cc(Cl)ccc1OC(C)C(=O)O (stereo not drawn)

>  <Qualitative Label>
-1

$$$$

INPUT: // outcome(item) with item = O=C(O)C1(c2ccc3c(c2)OC[C@H](Cc2ccc(-c4ccccc4)cc2)[C@H]3O)CCCC1
OUTPUT: 1

INPUT: What outcome does the record of this test show for O=[N+]([O-])c1ccc(Nc2ccccc2)cc1 ?
OUTPUT: -1

INPUT: GET /call?item= c1ccc2sc(SNC3CCCCC3)nc2c1 returns the recorded outcome of this test.
OUTPUT: -1

INPUT: So what was the verdict on CC(C)(COCC1CO1)COCC1CO1 (stereo not drawn) in this test?
OUTPUT: -1

INPUT: For this compound, state the assay outcome: O=c1oc2ccccc2c(O)c1C(CC(O)c1ccc(-c2ccc(Br)cc2)cc1)c1ccccc1 (stereo not drawn)
OUTPUT: 1

###

Read-out: TIMP metallopeptidase inhibitor 1 (TIMP1), TIMP1 (gene 7076)
Protocol Text: BSK_hDFCGF_TIMP1: BioMAP Diversity Plus: hDFCGF Assay for TIMP metallopeptidase inhibitor 1 (TIMP1) Biomarker Activity (AID 2283062)
Condition Set: primary human foreskin fibroblasts; actives raise or lower the signal
Active and inactive are the calls of the source. The calls were made as follows: active = hit-call score of the fitted dose curve at least 0.9, where 1 is the maximum; inactive = score below 0.9.
The reply should name one outcome from t = active, f = inactive

Worked set:
>  <Compound>
N#CCCC(Br)(C#N)CBr (stereo unspecified)

>  <Qualitative Label>
t

$$$$
>  <Compound>
Cc1cc(C)cc(C)c1

>  <Qualitative Label>
f

$$$$

Read the next record carefully.
INPUT: What outcome does the record of this test show for Oc1cc(Cl)c(Cl)cc1Cl ?
OUTPUT: f

###

Read-out: Matrix Metallopeptidase 1 (MMP1), MMP1 (gene 4312)
Protocol Text: BSK_BE3C_MMP1: BioMAP Diversity Plus: BE3C Assay for Matrix Metallopeptidase 1 (MMP1) Biomarker Activity (AID 2283024)
Condition Set: primary human bronchial epithelial cells; actives raise or lower the signal
Protocol: BSK_BE3C is a cell-based, multiplexed-readout assay that uses bronchial epithelial cell, a human lung primary cell, with measurements taken at 24 hours after chemical dosing in a 96-well plate.BSK_BE3C_MMP1 is an assay component measured in the BSK_BE3C assay. It measures MMP-1 antibody related to regulation of gene expression using ELISA technology.Data from the assay component BSK_BE3C_MMP1 was analyzed into 1 assay endpoint. […]
Activity calls are given as the source filed them. The calls were made as follows: active = hit-call score of the fitted dose curve at least 0.9, where 1 is the maximum; inactive = score below 0.9.
The categories you may choose from are 1 (yes) for active, 0 (no) for inactive

Some solved cases for reference:
>  <Compound>
Cc1cc(C)cc(C)c1

>  <Qualitative Label>
0 (no)

$$$$
>  <Compound>
N#Cc1cccnc1

>  <Qualitative Label>
0 (no)

$$$$
>  <Compound>
Oc1c(Cl)cc(Cl)cc1Cl

>  <Qualitative Label>
0 (no)

$$$$
>  <Compound>
Cc1cc(C(C)(C)c2ccc(O)c(C)c2)ccc1O

>  <Qualitative Label>
0 (no)

$$$$
>  <Compound>
CCOP(=S)(OCC)SCS(=O)(=O)C(C)(C)C

>  <Qualitative Label>
0 (no)

$$$$

INPUT: State the result this test recorded for Nc1ccc(N)cc1 .
OUTPUT: 0 (no)

INPUT: Returns: the outcome recorded for CCOC(=O)CCN(SN(C)C(=O)Oc1cccc2c1OC(C)(C)C2)C(C)C in this assay.
OUTPUT: 0 (no)

INPUT: Which result was noted for this compound in the test: CCCCCCCCCCCCc1cccc(S(=O)(=O)O)c1
OUTPUT: 1 (yes)

INPUT: Test call, this compound: O=[N+]([O-])c1cccc2ccccc12
OUTPUT: 0 (no)

INPUT: What did this assay record as the result for CCOC(=O)CC(=O)CCl ?
OUTPUT: 0 (no)

INPUT: # lookup: test call for O=[N+]([O-])c1ccc(Nc2ccccc2)cc1
OUTPUT: 0 (no)

INPUT: Assay outcome for NC(=O)CCl : what was it?
OUTPUT: 0 (no)

INPUT: Could you kindly confirm the outcome this assay logged for COCC(=O)N(c1c(C)cccc1C)[C@H](C)C(=O)OC ?
OUTPUT: 0 (no)

INPUT: For this compound, state the assay outcome: C#CCOC(=O)/C=C(C)/C=C/CC(C)CCCC(C)C (configuration not stated)
OUTPUT: 0 (no)

INPUT: Fill in: this test's call for O=c1oc2ccccc2c(O)c1C(CC(O)c1ccc(-c2ccc(Br)cc2)cc1)c1ccccc1 (configuration not stated) is ___
OUTPUT: 1 (yes)

INPUT: For this compound, state the assay outcome: Clc1cccc(Cl)c1Cl
OUTPUT: 0 (no)

INPUT: Recorded test outcome, item CCN(CC)C(=O)C(Cl)=C(C)OP(=O)(OC)OC
OUTPUT: 0 (no)

INPUT: What outcome does the record of this test show for CN(C)C(=S)S ?
OUTPUT: 1 (yes)

INPUT: Hello, I am checking results. What call was entered for O=C(N[C@H]1CN2CCC1CC2)c1ccc2c(c1)OCCO2 ?
OUTPUT: 0 (no)

The reported numbers originate from PubChem BioAssay (EPA / NIEHS).
